- Test protocol: P. aeruginosa biofilm formation inhibitors, primary screen, PAO1 strain, BacTiter-Glo luminescence, LB-PBS (AID 1144)
- Test settings: 12 h, higher = more signal
Calls of active or inactive are those of the source. The rule behind the calls is not given here.
Reported z-score values for a set of compounds

- Compound: "C=CCC(OC(C)=O)[C@@H]1[C@@H](N(Cc2ccc(-c3cccc(C(F)(F)F)c3)o2)C(=O)Cc2ccc(OC)cc2)c2cc(OCCCO)ccc2N1C(=O)c1ccc2ccccc2n1 (stereo partly drawn)"
  Measured parameter: "z-score"
  Assay value: "0.6 (inactive)"
- Compound: "CCOC(=O)C1=CC[C@@H](c2ccccc2)N(S(=O)(=O)c2ccc(C)cc2)[C@H]1C#N"
  Measured parameter: "z-score"
  Assay value: "0.184 (inactive)"
- Compound: "COCCOC(=O)N1C(=O)[C@@]2(c3cc(C#CC4(O)CCCCCC4)ccc31)[C@H](c1ccc(OCCO)cc1)N1[C@H](c3ccccc3)[C@H](c3ccccc3)OC(=O)[C@H]1[C@@H]2C(N)=O"
  Measured parameter: "z-score"
  Assay value: "0.323 (inactive)"
- Compound: "CCCC=C(CCC)[C@@H](NC(=O)c1ccccc1)c1ccc(C(=O)OC)cc1"
  Measured parameter: "z-score"
  Assay value: "-0.947 (inactive)"

Query: Which z-score is reported for this compound? C/C=C/CN(C(=O)C#Cc1ccccc1)[C@H](CO[Si](C)(C)C(C)(C)C)c1ccccc1
Response: 1.09 (inactive)

Query: Need z-score of COCCOC(=O)N1C(=O)[C@@]2(c3cc(C#CCCO)ccc31)[C@H](C(=O)N1CCN(c3ncccn3)CC1)[C@H]1C(=O)O[C@H](c3ccccc3)[C@H](c3ccccc3)N1[C@@H]2c1ccc(O)cc1 , thanks.
Response: -0.798 (inactive)

* * *

- Tested on: XIP peptide (Xip251-270)
- Test protocol: small-molecule binders of XIP peptide, primary screen, biochemical, small-molecule microarray, fluorescence 635/667 nm, 0.5 µg/mL protein (AID 1183)
- Test settings: small-molecule microarray binding, fluorescence 635 nm; higher = more signal
Measured composite z-score of individual entries

Query: Entry CC(C)C[C@@H]1NC(=O)[C@@H]2C[C@H](C(=O)O)[C@H](c3ccc(O)cc3)N2C1=O has what composite z-score?
Response: 0.705

Query: Can you look up the measured composite z-score of C=CCOC(=O)[C@H]1[C@@H]2C(=O)O[C@@H](c3ccccc3)[C@@H](c3ccccc3)N2[C@@H](c2ccc(OCCOC(=O)[C@H]3C[C@H]4C(=O)NCC(=O)N4[C@H]3c3ccc(O)cc3)cc2)[C@]12C(=O)Nc1ccc(I)cc12 for me?
Response: 0.7

Query: Looking for the measured composite z-score of C[N+](C)(C)CCCC[C@@H]1NC(=O)[C@H]2C[C@@H](C(=O)NCCCCCNC(=O)CS)[C@@H](c3ccc(O)cc3)N2C1=O , can you help?
Response: 0.696

* * *

The entries below come with measured z-score values attached.
- Test protocol: E. coli acrAB mutant growth effects, primary screen, E. coli filamentation inducers, strain DRC39, OD650, 48 h (AID 1179);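 note: screen aims at cell division blockers that make cells filament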
- Test settings: E. coli DRC39 delta-acrAB growth, higher = more signal, called active from +8 up or from −8 down
Reply: number alone, nothing else.

Would you please look over these solved cases?
- Compound: "COCCOC(=O)N1C(=O)[C@@]2(c3cc(C#CC4=CCCCC4)ccc31)[C@H](C(=O)N1CCc3cc(OC)c(OC)cc3C1)[C@H]1C(=O)O[C@H](c3ccccc3)[C@H](c3ccccc3)N1[C@@H]2c1ccc(O)cc1"
  z-score: -0.169
- Compound: "COC(=O)[C@@]1(Cc2ccc(OC)cc2)[C@H]2c3cc(C(=O)N4CCCC4)n(CCc4ccc(OC)c(Br)c4)c3C[C@H]2CN1C(=O)c1ccccc1"
  z-score: -0.351

Query: Any idea what z-score was measured for COc1ccc(CCNC(=O)[C@@H]2c3ccccc3C(=O)N(CC34CC5CC(CC(C5)C3)C4)[C@H]2c2ccc(CO)cc2)cc1 ?
Response: 0.119

Query: So what does the record say about z-score for C=C(CCCC)/C(=C/C[C@H](OC(C)=O)c1cccc(OCCO)c1)c1cc(C(=O)OC)ccc1OC ?
Response: 1.34

Query: # input compound: C=CCOC(=O)[C@H]1[C@@H]2C(=O)O[C@@H](c3ccccc3)[C@@H](c3ccccc3)N2[C@@H](c2ccc(OCCOC(=O)[C@@H]3C[C@@H]4C(=O)N[C@@H](Cc5ccccc5)C(=O)N4[C@@H]3c3ccc(O)cc3)cc2)[C@]12C(=O)Nc1ccccc12 ; wanted: its z-score
Response: -0.282

Query: What value of z-score has been reported for the following compound? COC(=O)[C@@]1(CCC(=O)OC(C)(C)C)N=C(c2ccc(OCCCO)cc2)O[C@H]1c1ccccc1CN=[N+]=[N-]
Response: -0.0915

Query: Find the recorded z-score belonging to COC(=O)c1ccc([C@H](NC(=O)c2ccccc2)[C@]2(C)C[C@H]2C2CCCCC2)cc1 and report it.
Response: -0.768

Query: # query: z-score of entry CC(C)C[C@@H]1NC(=O)[C@@]23C(=O)N[C@@H](Cc4ccccc4)C2[C@H](C)[C@@]2(C)O[C@H]2C3/C=C/C/C=C\CNC(=O)[C@@H](CC(C)C)NC1=O (some centres undefined)
Response: -0.323

Query: Looking for the measured z-score of CCCCC(O)C1C=CC2C(=O)N(C)C(=O)C2N1Nc1ccccc1 (centres undefined) , can you help?
Response: -0.618

* * *

- Test protocol: S. cerevisiae RM11-1a growth modifiers, primary screen, strain RM11-1a, OD600, basal, 24 h (AID 1177);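 note: cultures grown under basal conditions with no added stressor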
- Test settings: OD600, 24 h, higher = more signal, called active from +8 up or from −8 down
Measured parameter: z-score
I'd appreciate a reply containing only the number, no unit.

Here's what some known entries look like.
- Compound: "NCCCC[C@@H]1NC(=O)[C@H]2C[C@@H](C(=O)NCc3ccc(F)cc3)[C@@H](c3cccc(OCCO)c3)N2C1=O"
  z-score: 1.57
- Compound: "O=C(NCCO)C1=C[C@H](Oc2ccccc2I)[C@@H](O)[C@H](NCc2ccc(F)cc2)C1"
  z-score: 0.423
- Compound: "CCOC(=O)C[C@H]1[C@H](OC(=O)c2ccc(-c3ccccc3)cc2)[C@@H](NC(=O)c2ccc3ccccc3c2)c2cc(OCCCO)ccc2N1C(=O)c1ccccc1"
  z-score: 1.13
- Compound: "CC(=O)NCCCC[C@@H]1NC(=O)[C@H]2C[C@@H](C(=O)NCCCCCC[N+](C)(C)C)[C@@H](c3ccc(O)cc3)N2C1=O"
  z-score: -0.533
- Compound: "COc1ccc(CC[C@H](O)c2cccc(OCC(=O)OC(C)(C)C)c2)cc1"
  z-score: 0.69
- Compound: "C=CCC(OC(C)=O)[C@@H]1[C@@H](N(Cc2cc3ccccc3o2)C(=O)c2ccc(-c3ccccc3)cc2)c2cc(OCCCO)ccc2N1C(=O)c1ccc2ccccc2n1 (stereo not given in full)"
  z-score: 0.913

Query: Suppose we examine the compound C=CC[C@]1(C(=O)N(C)C)COC(c2ccc(OCCCO)cc2)=N1 ; what z-score value has been reported?
Response: 0.919

Query: GET /values?readout=z-score&item= CN(C)CCCNC(=O)[C@@H]1c2ccccc2C(=O)N(C2Cc3ccccc3C2)[C@H]1c1ccc(CO)cc1
Response: -0.632

Query: Look up z-score: C=CC[C@@]1(C(=O)O)N=C(c2ccc(OCCCO)cc2)O[C@@H]1c1ccccc1CN=[N+]=[N-]
Response: -0.534

Query: Any idea what z-score was measured for COC(=O)[C@@]1(CCS(=O)(=O)c2ccccc2)N=C(c2ccc(OCCCO)cc2)O[C@H]1c1ccccc1N=[N+]=[N-] ?
Response: 1.09

Query: What measured z-score goes with COCCOC(=O)N1C(=O)[C@@]2(c3ccccc31)[C@H](C(N)=O)[C@H]1C(=O)O[C@H](c3ccccc3)[C@H](c3ccccc3)N1[C@@H]2c1ccc(OCCO)cc1 ?
Response: 1.96

Query: Record request: z-score value, item CCCC[C@@H]1C[C@H]1[C@@H](NC(=O)c1ccc(C(F)(F)F)cc1)c1ccc(C(=O)OC)cc1
Response: 1.02

Query: Reported z-score, compound C=CCN1C(=O)[C@]2(O[C@H](CCO)[C@@H]([Si](C)(C)c3ccc(OC)cc3)[C@@H]2C)c2ccccc21 : ____
Response: 1.55

Query: Which z-score value is on record for C=C(CC1([C@@H](NP(=O)(c2ccccc2)c2ccccc2)[C@H]2C[C@@H]2CCN(C(=O)OCC)S(=O)(=O)c2ccc(C)cc2)CC1)c1ccccc1 ?
Response: 1.52

Query: So what's the measured z-score for this one? CN(C)CCCCNC(=O)[C@H]1C[C@H]2C(=O)NCC(=O)N2[C@H]1c1cccc(OCCO)c1
Response: 1.06
